Just for reference, paper PMC6691349 is where these values come from.

Molecular target: falcipain-2 (Plasmodium falciparum, UniProt Q8I6U4)
Construct: gene FP2A
Sequence (Q8I6U4 244-484): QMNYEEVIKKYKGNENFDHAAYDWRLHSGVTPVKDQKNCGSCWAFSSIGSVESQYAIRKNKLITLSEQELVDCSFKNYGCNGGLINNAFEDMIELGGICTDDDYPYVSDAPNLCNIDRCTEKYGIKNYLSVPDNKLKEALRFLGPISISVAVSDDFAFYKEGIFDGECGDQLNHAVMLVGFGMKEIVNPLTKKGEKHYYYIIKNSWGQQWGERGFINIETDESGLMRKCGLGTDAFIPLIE
Assay: fluorometric Z-LR-AMC kinetic assay with refolded recombinant enzyme; global fit to mixed inhibition model
Assay type: biochemical
attribute_measured: Ki (µM)

[[record]]
compound = "C=C1c2cccc(O)c2C(=O)C2=C(O)[C@]3(O)C(=O)C(C(N)=O)=C(O)[C@@H](N(C)C)[C@@H]3[C@@H](O)[C@H]12 [methacycline]"
attribute_measured = "Ki"
result_number = 84.4


###

Target: falcipain-2 (Plasmodium falciparum, UniProt Q8I6U4)
Construct: gene FP2A
Assay: fluorometric Z-LR-AMC kinetic assay with refolded recombinant enzyme; global fit to competitive and Morrison equations; reversibility by rapid dilution
Format: biochemical
attribute_measured: Ki

[[record]]
compound = "CC(C)(F)C[C@H](N[C@@H](c1ccc(-c2ccc(S(C)(=O)=O)cc2)cc1)C(F)(F)F)C(=O)NC1(C#N)CC1 [odanacatib]"
result = "98.2 nM"

